Experimental System: Thymidylate synthase (Homo sapiens); note: test concentration or dose not given here
Decide using IF alone. Strictly below 0.6: Fulfilled. Equal to or above 0.6: Not fulfilled.

Worked examples follow.
O=C1OC(c2ccc(O)cc2)(c2ccc(O)cc2)c2ccc(Cl)c3cccc1c23.O=C1OC(c2ccc(O)cc2)(c2ccc(O)cc2)c2cccc3c(Cl)ccc1c23 = Fulfilled
O=C1OC(c2ccc(O)c(Cl)c2)(c2ccc(O)c(Cl)c2)c2ccccc21 = Not fulfilled

## Input Identify whether the compound O=C1OC(c2ccc(O)cc2)(c2ccc(O)cc2)c2cccc3cccc1c23 records IF below 0.6.
## Output Fulfilled

## Input Is it true that IF reported for O=C1OC(c2ccc(O)c(F)c2)(c2ccc(O)c(F)c2)c2cccc3cccc1c23 is less than 0.6?
## Output Not fulfilled

## Input Does this compound meet the criterion IF < 0.6? O=C1OC(c2ccc(O)c(F)c2)(c2ccc(O)c(F)c2)c2cc3ccccc3cc21
## Output Fulfilled

## Input Does the reported IF of O=C1OC(c2ccc(O)cc2)(c2ccc(O)cc2)c2ccc([N+](=O)[O-])c3cccc1c23 stay below 0.6?
## Output Fulfilled

## Input Problem: For the compound Cc1ccc(C(C)C)c(O)c1C1(O)OC(=O)c2cccc3cccc1c23 (stereo unspecified) , is IF under 0.6?
## Output Not fulfilled

## Input Given the entry O=C1OC(O)(c2ccccc2O)c2cccc3cccc1c23 (stereo unspecified) , would its reported IF be below 0.6?
## Output Not fulfilled

## Input Lab log: compare recorded IF with 0.6; is it strictly lower for O=C1OC(c2ccc(O)c(Cl)c2)(c2ccc(O)c(Cl)c2)c2cccc3cccc1c23 ?
## Output Not fulfilled

## Input Please state whether IF is below 0.6 for O=C1OC(c2ccc(O)c(Cl)c2)(c2ccc(O)c(Cl)c2)c2ccc(Cl)c3cccc1c23.O=C1OC(c2ccc(O)c(Cl)c2)(c2ccc(O)c(Cl)c2)c2cccc3c(Cl)ccc1c23
## Output Not fulfilled
